STUDY_SYSTEM: A*6802 (Homo sapiens, UniProt P04439, A269V/D140Y/D185E/E176V/E277Q/E87N/F33Y/G231S/I121R/I166T/I218V/L180W/L300P/L318F/N151K/P208A/P217A/Q86R/R138H/R169H/S129P/T345S/V36M)
PROTOCOL_SUMMARY: biochemical
Format: binding
No end group written: not given here.
IC50 strictly under 6 µM means criterion met; at 6 µM or over means criterion not met.

Use the examples below as a reference point.
residue_sequence="STQELFIPNV [Peptide 9013.0181]" assigned_label="criterion met"
residue_sequence="RVLQQLLFV [Peptide 1545.05]" assigned_label="criterion not met"

[Q] I'd appreciate it if you could check whether WQRLLLTASLV [Peptide 9013.0253] has IC50 smaller than 6 µM.
[A] criterion not met

[Q] Again, but for KLTPLCVIL [Peptide 1516.15]
[A] criterion not met

[Q] Again, but for VTAKELKFV [Peptide 1418.24]
[A] criterion not met

[Q] Again, but for RVYVCGIQNSV [Peptide 9013.0336]
[A] criterion not met

[Q] Again, but for VQWAYDHDI [Peptide 86.0205]
[A] criterion not met

* * *

STUDY_SYSTEM: B*0702 (B*0701) (Homo sapiens, UniProt P01889)
PROTOCOL_SUMMARY: biochemical
Assay type: binding
No end group written: not given here.
IC50 overview

Worked cases, IC50 given:
residue_sequence=DPYEVSYRI study_system="B*0702 (B*0701) (Homo sapiens, UniProt P01889)" metric=IC50 result="> 30 µM"
residue_sequence=YPFQPPKV study_system="B*0702 (B*0701) (Homo sapiens, UniProt P01889)" metric=IC50 result="> 30 µM"

We next turn to a different sequence, shown below.
[Q] Lab note: need IC50 for APRASRPSL on B*0702 (B*0701) (Homo sapiens, UniProt P01889), anyone have it?
[A] 0.0039 µM

* * *

pIC50 overview
STUDY_SYSTEM: DRB1*0301 (Homo sapiens, UniProt P01903+P01911, A100K/A102G/A103R/A169T/F55Y/I96L/K41T/L162R/M171V/P40S/Q125H/Q178H/Q39Y/R42S/S66N/T106N/T262R/W38E/Y61H)
Sequence (P01903 26-254 limits assumed, other chains not shown): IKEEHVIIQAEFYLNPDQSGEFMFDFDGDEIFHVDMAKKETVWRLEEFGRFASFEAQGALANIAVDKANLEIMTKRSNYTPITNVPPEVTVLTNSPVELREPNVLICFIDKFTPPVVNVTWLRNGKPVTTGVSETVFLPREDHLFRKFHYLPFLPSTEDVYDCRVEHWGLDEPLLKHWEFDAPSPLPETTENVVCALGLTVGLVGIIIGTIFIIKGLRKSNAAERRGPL
PROTOCOL_SUMMARY: biochemical
pIC50: −log10 of the molar value.

[Q] # input compound: CSCC[C@H](NC(=O)[C@H](CS)NC(=O)[C@H](CC(N)=O)NC(=O)[C@H](CC(=O)O)NC(=O)[C@H](CCCCN)NC(=O)[C@H](CC(N)=O)NC(=O)CN)C(=O)N[C@H](C(=O)N[C@@H](Cc1ccc(O)cc1)C(=O)N[C@H](C(=O)N[C@@H](C)C(=O)N[C@@H](Cc1c[nH]c2ccccc12)C(=O)N[C@@H](CC(=O)O)C(=O)N[C@@H](CO)C(=O)N[C@H](C(=O)O)C(C)C)C(C)C)[C@@H](C)O [Peptide 1601.09] ; wanted: its pIC50
[A] 5.05

[Q] Again, but for CC(C)C[C@H](NC(=O)[C@@H]1CCCN1C(=O)[C@H](Cc1c[nH]cn1)NC(=O)[C@@H]1CCCN1C(=O)[C@H](Cc1ccccc1)NC(=O)[C@H](CO)NC(=O)[C@H](Cc1c[nH]cn1)NC(=O)[C@H](CO)NC(=O)[C@@H](NC(=O)[C@H](CCC(N)=O)NC(=O)[C@H](Cc1ccccc1)NC(=O)[C@@H](NC(=O)[C@H](CCC(N)=O)NC(=O)CN)C(C)C)C(C)C)C(=O)N[C@@H](Cc1ccc(O)cc1)C(=O)O [Peptide 68.0069]
[A] < 4.70

[Q] Again, but for CC[C@H](C)[C@H](NC(=O)[C@H](Cc1c[nH]c2ccccc12)NC(=O)[C@@H](NC(=O)[C@@H](N)C(C)C)[C@@H](C)O)C(=O)NCC(=O)N[C@@H](C)C(=O)N[C@@H](C)C(=O)N1CCC[C@H]1C(=O)N[C@@H](CC(C)C)C(=O)N[C@H](C(=O)N[C@@H](CC(C)C)C(=O)N[C@@H](CO)C(=O)N[C@@H](CCCNC(=N)N)C(=O)N[C@H](C(=O)N[C@H](C(=O)O)C(C)C)[C@@H](C)CC)[C@@H](C)CC [Peptide 68.0060]
[A] < 4.70

* * *

IC50 overview
STUDY_SYSTEM: A*0202 (Homo sapiens, UniProt P04439, D140Y/D185E/D98H/E176V/E277Q/G131W/G231S/I119L/I121R/I166T/I218V/L180W/L300P/L318F/N151K/N90K/P208A/P217A/Q67R/Q86G/Q94H/R138H/R169H/T345S)
PROTOCOL_SUMMARY: biochemical

Worked cases, IC50 given:
molecule="CSCC[C@H](NC(=O)[C@@H](N)CCCNC(=N)N)C(=O)N1CCC[C@H]1C(=O)N[C@@H](CCC(=O)O)C(=O)N[C@@H](C)C(=O)N[C@@H](C)C(=O)N1CCC[C@H]1C(=O)N1CCC[C@H]1C(=O)N[C@H](C(=O)N[C@H](C(=O)O)C(C)C)C(C)C [Peptide 1317.29]" metric=IC50 result="62 nM"
molecule="CC(C)C[C@H](NC(=O)[C@@H](N)CCCNC(=N)N)C(=O)N1CCC[C@H]1C(=O)N[C@@H](CCC(=O)O)C(=O)N[C@@H](C)C(=O)N[C@@H](C)C(=O)N1CCC[C@H]1C(=O)N1CCC[C@H]1C(=O)N[C@H](C(=O)N[C@H](C(=O)O)C(C)C)C(C)C [Peptide 1323.17]" metric=IC50 result="32 nM"
molecule="CSCC[C@H](NC(=O)[C@H](C)N)C(=O)N[C@@H](CS)C(=O)N[C@@H](CCCNC(=N)N)C(=O)N[C@@H](Cc1c[nH]c2ccccc12)C(=O)NCC(=O)N[C@@H](CC(C)C)C(=O)N[C@@H](CC(C)C)C(=O)N[C@H](C(=O)O)C(C)C [Peptide 1334.07]" metric=IC50 result="9280 nM"
molecule="CC[C@H](C)[C@H](NC(=O)[C@@H](NC(=O)[C@@H](NC(=O)[C@@H](NC(=O)[C@@H](NC(=O)[C@@H](NC(=O)[C@@H](N)CCCNC(=N)N)[C@@H](C)O)[C@@H](C)O)C(C)C)[C@@H](C)O)[C@@H](C)O)C(=O)N[C@H](C(=O)N[C@H](C(=O)N[C@@H](Cc1ccc(O)cc1)C(=O)N[C@H](C(=O)O)C(C)C)C(C)C)[C@@H](C)O [Peptide 9013.0304]" metric=IC50 result="9.6 nM"

We next turn to a different molecule, shown below.
[Q] # input molecule: CC[C@H](C)[C@H](N)C(=O)N[C@@H](CCSC)C(=O)N[C@H](C(=O)NCC(=O)N[C@H](C(=O)N[C@@H](CC(C)C)C(=O)N[C@H](C(=O)NCC(=O)N[C@H](C(=O)N[C@@H](C)C(=O)N[C@H](C(=O)O)C(C)C)C(C)C)C(C)C)C(C)C)[C@@H](C)CC [Peptide 9013.0346] ; wanted: its IC50
[A] 18 nM

* * *

STUDY_SYSTEM: A*3301 (Homo sapiens, UniProt P04439, A270S/D185E/E176V/E277Q/E87N/F33T/G231S/H175R/I121M/I218V/I322F/K168Q/K210R/L300P/L318F/M331R/P217A/Q86R/Q94H/R138Q/T323A/T345S/T97I/V358M/Y195H)
PROTOCOL_SUMMARY: biochemical
Format: binding
No end group written: not given here.
IC50 strictly under 1 µM means T; at 1 µM or over means F.

residue_sequence="GTFKCSAGK [Peptide 88.0373]" assigned_label=F
residue_sequence="QQMFLGTVK [Peptide 88.0415]" assigned_label=F
residue_sequence="KLFLKGVPK [Peptide 1587.41]" assigned_label=F
residue_sequence="EFMSFLTALK [Peptide 1587.10]" assigned_label=T

[Q] I'd appreciate it if you could check whether AAEGVGAVSR [Peptide 9017.0188] has IC50 smaller than 1 µM.
[A] F

[Q] Again, but for VTVYYGVPIWK [Peptide 1525.02]
[A] F

[Q] Again, but for KIDRLIDRIR [Peptide 9017.0249]
[A] F

[Q] Again, but for ILLLLIRFK [Peptide 88.0386]
[A] T

[Q] Again, but for STCMGGMNR [Peptide 1556.61]
[A] F

[Q] Again, but for LQMALETLSK [Peptide 88.0214]
[A] F

* * *

STUDY_SYSTEM: A*0206 (Homo sapiens, UniProt P04439, D140Y/D185E/D98H/E176V/E277Q/F33Y/G131W/G231S/I119V/I121R/I166T/I218V/L300P/L318F/N151K/N90K/P208A/P217A/Q86G/Q94H/R138H/R169H/T345S)
PROTOCOL_SUMMARY: biochemical
Assay type: binding
pIC50: −log10 of the molar value. No end group written: not given here.
Output YES for pIC50 not less than 6; output NO otherwise.

[Q] Please tell me: is the sequence PQYSWRINGV [Peptide 9013.0235] at or over 6 in terms of pIC50?
[A] NO

[Q] Again, but for RILQQMLFI [Peptide 1525.22]
[A] YES

[Q] Again, but for QLHTQVLFI [Peptide 9013.0103]
[A] NO
